IC50: recorded values
Tested on: HL-60 (Leukemia) cell line
method description: Proliferation of HL-60
Assay type: cell-based
assay context: Homo sapiens, HL-60; read-out: IC50 in μM HL-60 (Leukemia)

Task: Report IC50 for CC(=O)O[C@@]12C[C@@H](C)[C@@]3(O)[C@@H](C=C(CO)C[C@]4(O)C(=O)C(C)=C[C@@H]34)[C@@H]1C2(C)C [Compound K101, prostratin, reference compound] please.
Result: 0.2 to 0.6 µM

Task: What does the record list as IC50 for CC1=C[C@H]2[C@@]3(O)[C@H](C)C[C@]4(OC(=O)Cc5ccccc5)[C@H]([C@@H]3C=C(CO)C[C@]2(O)C1=O)C4(C)C [Compound K101-C1304] ?
Result: 0.01 to 0.03 µM
